- SYSTEM_TESTED: purified human PRX3 (Homo sapiens)
- Construct: made in house
- Sequence (P30048 62-256): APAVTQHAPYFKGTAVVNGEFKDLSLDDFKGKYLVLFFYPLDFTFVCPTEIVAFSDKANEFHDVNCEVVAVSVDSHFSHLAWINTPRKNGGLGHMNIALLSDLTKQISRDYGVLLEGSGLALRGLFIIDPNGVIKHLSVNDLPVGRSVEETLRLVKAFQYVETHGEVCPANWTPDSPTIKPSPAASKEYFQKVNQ
- PROCEDURE_DETAILS: Biochemical PRX3 Inhibition Assay (non-reducible crosslink by SDS PAGE + single adduct by MALDI-TOF MS)
- RUN_PARAMETERS: 100 μM PRX3 with TRX2/thioredoxin reductase/NADPH system and hydrogen peroxide, 1-2 hr at 37° C.
RECORDED_METRIC: PRX3 Inhibition (Crosslink + Mono-adduct)

{"columns": ["MOLECULE", "EXPERIMENTAL_RESULT"],
 "data": [
  ["C=C(NC(=O)c1csc(C2=CCN(C(=O)OC(C)(C)C)CC2)n1)C(=O)NC(=C)C(=O)OC", "+++ (>90%)"],
  ["C=C(NC(=O)c1csc(N2CCN(C(=O)OC(C)(C)C)[C@@H](C)C2)n1)C(=O)NC(=C)C(=O)OC", "+++ (>90%)"],
  ["C=C(NC(=O)c1csc(-c2ccc(CNC(=O)OCC3CCOCC3)cc2)n1)C(=O)NC(=C)C(=O)OC", "++ (50-90%)"],
  ["C=C(NC(=O)c1csc(N2CCCC(C(=O)NCC(C)C)C2)n1)C(=O)NC(=C)C(=O)OC (stereo not shown)", "+++ (>90%)"],
  ["C=C(NC(=O)c1csc(-c2ccc(C(=O)NCCCCCCOS(C)(=O)=O)nc2)n1)C(=O)NC(=C)C(=O)OC", "+++ (>90%)"],
  ["C=C(NC(=O)c1csc(N2CCC(NC(=O)CCCCCNC(=O)OC(C)(C)C)CC2)n1)C(=O)NC(=C)C(=O)OC", "+++ (>90%)"],
  ["C=C(NC(=O)c1csc(N2CCC(NC(=O)COCCOC)CC2)n1)C(=O)NC(=C)C(=O)OC", "+++ (>90%)"],
  ["C=C(NC(=O)c1csc(N2CCC[C@H](NC(=O)C3CCOCC3)C2)n1)C(=O)NC(=C)C(=O)OC", "++ (50-90%)"],
  ["C=C(NC(=O)c1csc(-c2ccc(CNC(=O)CCCCCNC(=O)OC(C)(C)C)cc2)n1)C(=O)NC(=C)C(=O)OC [Compound 16]", "+++ (>90%)"]
]}

====

- Tested on: human SK—OV-3 ovarian cancer cells
- PROCEDURE_DETAILS: Cellular Activity Assay (cytotoxicity, crystal violet)
- Assay type: cell-based
- RUN_PARAMETERS: Homo sapiens; SK—OV-3 cells, treated for 48 hr, 0.1-100 μM, crystal violet absorbance at 540 nm
pEC50: −log10 of the molar value.

{"columns": ["COMPOUND", "pEC50"],
 "data": [
  ["C=C(NC(=O)c1csc(-c2ccc(CNC(=O)COCCOC)cc2)n1)C(=O)NC(=C)C(=O)OC", "5.00 to 6.00"],
  ["C=C(NC(=O)c1csc(N2CCC(CNC(=O)OCC)CC2)n1)C(=O)NC(=C)C(=O)OC", "5.00 to 6.00"],
  ["C=C(NC(=O)c1csc(N2CCC(NC(=O)OC(C)(C)C)CC2)n1)C(=O)NC(=C)C(=O)OC", "5.00 to 6.00"],
  ["C=C(NC(=O)c1csc(-c2ccc(NC(=O)OC(C)(C)C)cc2)n1)C(=O)NC(=C)C(=O)OC", "5.00 to 6.00"],
  ["C=C(NC(=O)c1csc(N2CCOCC2)n1)C(=O)NC(=C)C(=O)OC", "4.60 to 5.00"],
  ["C=C(NC(=O)c1csc(N2CCC(NC(=O)COCCOC)CC2)n1)C(=O)NC(=C)C(=O)OC", "5.00 to 6.00"],
  ["C=C(NC(=O)c1csc(N2CCC[C@@H](NC(=O)OCCOC)C2)n1)C(=O)NC(=C)C(=O)OC", "4.00 to 4.60"],
  ["C=C(NC(=O)c1csc(-c2ccc(CNC(=O)OCCOC)cc2)n1)C(=O)NC(=C)C(=O)OC", "5.00 to 6.00"],
  ["C=C(NC(=O)c1csc(N2CCC(CNC(=O)COCCOC)CC2)n1)C(=O)NC(=C)C(=O)OC", "4.60 to 5.00"]
]}

Data origin, for the record: patent US20250011316A1
